Reference source: ChEMBL document CHEMBL1201862

- Tested on: SK-MEL-28
- experiment: NCI tumour cell line growth inhibition, 48 h
The source made the active and inactive calls. Rule as the data show it: active = GI50 up to about 1.1 µM and inactive = higher.
metric: GI50

# annotated cases, reported GI50 shown
molecule: CN(C)c1ccc2c(SCC(=O)OCC(=O)[C@@]3(O)CC[C@H]4[C@@H]5CCC6=CC(=O)C=C[C@]6(C)[C@H]5C(=O)C[C@@]43C)c3ccc(N(C)C)cc3nc2c1
metric: GI50
recordedValue: 21.6 µM (inactive)
//
molecule: Cc1ccc(/C=C/C(=O)c2sc(-c3nc(C)c(C(=O)/C=C/c4ccc(C)cc4)s3)nc2C)cc1
metric: GI50
recordedValue: > 100 µM (inactive)
//
molecule: CC(C)CN1CC(C)C(=O)NC1=O (stereo not drawn)
metric: GI50
recordedValue: > 100 µM (inactive)
//
molecule: COc1c(CC(C)=O)c2ccccc2n1C(C)=O
metric: GI50
recordedValue: > 100 µM (inactive)
//
molecule: CCCCCCCCCCCCCS(=O)(=O)O
metric: GI50
recordedValue: > 100 µM (inactive)

Would you be so kind as to report GI50 for each listed record?
1. CC(C(N)C(=O)NC(C(=O)O)C1OC(n2ccc(=O)[nH]c2=O)C(O)C1O)C(O)c1ccc(O)cn1 (stereo not drawn)
2. CCOC(=O)C(C)c1nc2cc(F)c(N3CCOCC3)cc2[nH]c1=O (stereo not drawn)
3. Cc1nc(-c2ccc([N+](=O)[O-])cc2)cn2c1nc1ccccc12
4. O=C1c2ccccc2C(=O)c2c(NCC3CO3)cccc21 (stereo not drawn)
5. C(=N\Cc1ccccc1)/c1ccccc1-c1ccccc1/C=N/Cc1ccccc1
6. Nc1ccc2c(c1)C(=O)c1ccc(F)cc1-2
7. COc1cc2c(cc1OC)C(Cc1c3ccccc3cc3ccccc13)N(C)CC2 (stereo not drawn)
8. N#C/C(=C\c1ccccc1)C(NO)Nc1ccccc1 (stereo not drawn)

A.
> 100 µM (inactive)
> 100 µM (inactive)
> 100 µM (inactive)
> 41.7 µM (inactive)
> 7.57 µM (inactive)
> 100 µM (inactive)
20.2 µM (inactive)
> 100 µM (inactive)
